molecular target: TREM2 receptor (Homo sapiens, UniProt Q9NZC2); construct: Both parental (TREM2 expressing) and isogenic TREM2 KO iPSC macrophages were plated; endogenous in cells; host or cells: human iPSC-derived macrophages (parental, TREM2 expressing); experiment: pSYK Homogenous Time Resolved Fluorescence (HTRF) assay in iPSC macrophages; assay type: cell-based; conditions: human iPSC macrophages, 5 mins stimulation, phospho (Tyr 525/526) SYK; NB = no binding; read-out: pSYK
Sequence (Q9NZC2 19-230): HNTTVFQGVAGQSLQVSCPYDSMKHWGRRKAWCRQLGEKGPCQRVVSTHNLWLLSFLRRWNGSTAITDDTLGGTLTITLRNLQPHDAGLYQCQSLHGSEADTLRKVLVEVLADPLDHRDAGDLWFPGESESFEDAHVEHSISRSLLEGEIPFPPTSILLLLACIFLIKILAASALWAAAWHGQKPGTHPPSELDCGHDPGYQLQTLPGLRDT
*1 amine or outer side, *2 acyl side, *3 side chain or, on linkers, in order; H or OH if unused. Where a SMILES comes first, the peptide text is derived from it. Bridges are numbered along the chain shown (N, C = ends). TATA = O=C(CC[*:1])N1CN(C(=O)CC[*:2])CN(C(=O)CC[*:3])C1
Exercise: for every item that follows, state its recorded pEC50.
Expect pEC50 as a plain number equal to -log10 of the molar concentration.

Exercise: Quickly give me recorded pEC50 for C[C@H](N)C(=O)N[C@H]1CSCCC(=O)N2CN3CN(C2)C(=O)CCSC[C@H](NC(=O)[C@H](Cc2ccc(O)cc2)NC(=O)[C@H](CC(N)=O)NC(=O)[C@H]([C@@H](C)O)NC1=O)C(=O)N[C@@H](Cc1ccccc1)C(=O)N[C@@H](Cc1c[nH]c2ccccc12)C(=O)N1CCC[C@H]1C(=O)N[C@@H](Cc1ccccc1)C(=O)N[C@@H](CCC(N)=O)C(=O)N[C@@H](Cc1ccc(O)cc1)C(=O)N[C@H](C(=O)N[C@@H](C)C(N)=O)CSCCC3=O [BCY19779, A-(SEQ ID NO: 18)-A] (H-ACTNYCFWPFQYCA-NH2; linker 2-6-13 via TATA)
Solution: 5.60

Exercise: Please give measured pEC50 of the following entry: C[C@H](N)C(=O)N[C@H]1CSCCC(=O)N2CN3CN(C2)C(=O)CCSC[C@H](NC(=O)[C@H](Cc2ccc(O)cc2)NC(=O)[C@H](CCC(=O)O)NC(=O)[C@H](CO)NC1=O)C(=O)N[C@@H](Cc1ccccc1)C(=O)N[C@@H](Cc1c[nH]c2ccccc12)C(=O)N1CCC[C@H]1C(=O)N[C@@H](Cc1ccccc1)C(=O)N[C@@H](CCC(N)=O)C(=O)N[C@@H](Cc1ccc(O)cc1)C(=O)N[C@H](C(=O)N[C@@H](C)C(N)=O)CSCCC3=O [BCY19784, A-(SEQ ID NO: 23)-A] (H-ACSEYCFWPFQYCA-NH2; linker 2-6-13 via TATA)
Solution: 5.74

Exercise: Name the recorded pEC50 of the compound listed here: CC(C)C[C@@H]1NC(=O)[C@H](Cc2ccc(O)cc2)NC(=O)[C@H](Cc2ccccc2)NC(=O)[C@@H]2CCCN2C(=O)[C@H](Cc2c[nH]c3ccccc23)NC(=O)[C@H](Cc2ccccc2)NC(=O)[C@@H]2CSCCC(=O)N3CN(CN(C3)C(=O)CCSC[C@@H](C(=O)N[C@@H](C)C(N)=O)NC1=O)C(=O)CCSC[C@H](NC(=O)[C@H](C)N)C(=O)N[C@@H]([C@@H](C)O)C(=O)N[C@@H](CC(N)=O)C(=O)N[C@@H](Cc1ccc(O)cc1)C(=O)N2 [BCY19782, A-(SEQ ID NO: 21)-A] (H-ACTNYCFWPFYLCA-NH2; linker 2-6-13 via TATA)
Solution: 5.42
